experiment: Partition coefficient of the compound; assay type: ADME; conditions: octanol/water
measurement-kind: Partition coefficient

Below, each entry is followed by its recorded Partition coefficient result.
1. O=[N+]([O-])c1nccn1C1O[C@H](CO)[C@@H](O)[C@H]1O (some centres not stated)
0.07
2. COC(=O)C1(n2ccnc2[N+](=O)[O-])CC(OC(C)=O)C(NC(C)=O)C(C(OC(C)=O)C(COC(C)=O)OC(C)=O)O1 (configuration not stated)
2.56
3. O=C(OC[C@H]1O[C@@H](n2ccnc2[N+](=O)[O-])[C@H](OC(=O)c2ccccc2)[C@@H]1OC(=O)c1ccccc1)c1ccccc1
15.66
4. CC(=O)OCC1SC(n2ccnc2[N+](=O)[O-])C(OC(C)=O)C(OC(C)=O)C1OC(C)=O (configuration not stated)
4.22
5. O=[N+]([O-])c1nccn1C1OC(CO)C(O)C(O)C1O (configuration not stated)
0.04
6. O=[N+]([O-])c1nccn1C1SC(CO)C(O)C(O)C1O (configuration not stated)
0.22

Then this compound:
Ask: Can you look up the measured Partition coefficient of CC(=O)OCC1OC(n2ccnc2[N+](=O)[O-])C(OC(C)=O)C(OC(C)=O)C1OC(C)=O (configuration not stated) for me?
Result: 3.31
